- Tested on: NCI/ADR-RES ovarian
- PROCEDURE DETAILS: NCI tumour cell line growth inhibition, 48 h; in the data active = GI50 below about 0.43 µM; inactive = the rest
Answer with one of the outcomes given here: active, inactive

Use the examples below as a reference point.
| MOLECULE | CATEGORY |
| --- | --- |
| CC(=O)c1c[nH]c2ccc(-c3ccnc(Nc4ccc(NC(=O)c5cccc(F)c5)c(CN5CCOCC5)c4)n3)cc12 | active |
| Oc1ccc(Br)cc1CN1CCN(Cc2ccc(Cl)cc2)CC1 | inactive |
| O=C(NCCc1ccccc1)C(c1csc2ccccc12)N(C(=O)CCl)c1ccc(-c2cnco2)cc1 (configuration not stated) | active |
| Nc1nc(Cl)cc2c1ncn2C1OC(CO)C(O)C1O (configuration not stated) | inactive |
| O=C(/C=C/c1ccco1)c1ccc(Nc2ccnc3cc(Cl)ccc23)cc1 | inactive |

input: State the result this test recorded for C=CC[n+]1c(/C=C2\Sc3ccccc3N2C)sc(-c2ccccc2)c1-c1ccccc1 .
output: inactive

input: # lookup: test call for O=C1c2cc(Br)ccc2-c2c1c1ccccc1c(=O)n2CCCCl
output: inactive

* * *

- Tested on: OVCAR-8 ovarian
- PROCEDURE DETAILS: NCI tumour cell line growth inhibition, 48 h
Please go through the items and note down their TGI.

| MOLECULE | TGI |
| --- | --- |
| COc1cc(C2C3=C(COC3=O)N(CCO)c3cc4c(cc32)OCCO4)cc(OC)c1O (centres undefined) | > 50 µM |

Batch: TGI for all items listed.
1. C/C(=C/CC[C@](C)(OC1OC(CO)C(O)C(O)C1OC1OC(C)C(O)C(O)C1O)[C@H]1CC[C@]2(C)[C@@H]1CC[C@@H]1[C@@]3(C)CC[C@H](O)C(C)(C)[C@@H]3C[C@H](O)[C@]12C)CO (some centres undefined)
2. O=C(Nc1ccc(Cl)cc1Cl)c1c/c(=N\O)c2ccc(O)cc2o1
3. CO/C=C(/C(=O)OC)c1ccccc1[C@H]1C[C@@H]1c1ccc(OC)cc1

output:
1. > 100 µM
2. > 100 µM
3. > 100 µM

* * *

- Test system: SF-539 CNS
- PROCEDURE DETAILS: NCI tumour cell line growth inhibition, 48 h
So I've got a bunch of molecules here, and I need their TGI values.
Answers are plain numbers, in µM.

For orientation, consider the following solved cases.
| MOLECULE | REPORTED MEASUREMENT |
| --- | --- |
| CCCCOP(=O)(OCCCC)C(NS(=O)(=O)c1ccccc1)(C(=O)OCC)C(F)(F)F (centres undefined) | 38.3 |
| c1ccc2c(c1)N=c1ccccc1=P21c2ccccc2Nc2ccccc21 | 9.24 |
| CO/C=C(/C(=O)OC)c1ccccc1[C@H]1C[C@@H]1c1ccc(OC)cc1 | 38 |

Attention now shifts to the item below.
input: Please state recorded TGI (tested on SF-539 CNS) of Oc1cccc(-c2cc(=S)ss2)c1
output: 35

* * *

- System: HL-60(TB) leukemia
- PROCEDURE DETAILS: NCI tumour cell line growth inhibition, 48 h
ASSAY METRIC: TGI (µM)
Answers are plain numbers, in µM.

| MOLECULE | ASSAY METRIC | UNIT DESCRIPTOR | REPORTED MEASUREMENT |
| --- | --- | --- | --- |
| O=C(NCCc1ccc(F)cc1)c1cc(/C=C/c2cc(O)ccc2O)ccc1O | TGI | µM | 15.4 |
| O=C1CCCc2ccc3c(c21)CC1(Cc2cc4c(cc2C1)CCCC4)C3 | TGI | µM | 26.3 |
| CC(C)=CCC[C@@H](C)c1c(O)c(O)c(C)c2nc3ccccc3nc12 | TGI | µM | 2.98 |
| O=C(CCCCCn1c2ccccc2c2c3c(c4c5ccccc5[nH]c4c21)C(=O)N(O)C3=O)N1CCOCC1 | TGI | µM | 5.45 |
| COc1ccc(NC(=O)c2cc(NC(=O)/C=C/c3ccccc3)c(OC)c(OC)c2)cc1 | TGI | µM | 45.4 |

Below are 3 molecules. Give each one its TGI.
1. NS(=O)(=O)OC[C@H]1O[C@@H](n2cnc3c(N[C@H]4CCc5ccccc54)ncnc32)[C@H](O)[C@@H]1O
2. O=c1[nH]/c(=C/c2cccs2)c(=O)[nH]/c1=C/c1ccc(OCc2ccccc2)cn1
3. CCCCOP(=O)(OCCCC)C(NS(=O)(=O)c1ccccc1)(C(=O)OCC)C(F)(F)F (stereo not given)

output:
[1.44, 0.244, 47.8]

input: // lookup TGI for Cc1cc(C)c2c(=O)n(CC(O)CN3CCN(c4ncccn4)CC3)sc2n1 (stereo not given)
output: 38.9

These entries and their values trace back to PubChem BioAssay (NCI).
